Acinetobacter baumannii MIC data
Reported Metric: MIC

INSERT INTO results (molecule, target_or_system, observed_value) VALUES
  ('CC[C@H](C)[C@H](NC(=O)[C@@H](N)CCCCN)C(=O)NCC(=O)N[C@@H](CCCCN)C(=O)N[C@@H](C)C(=O)N[C@@H](CC(C)C)C(=O)NCC(=O)N[C@@H](CCCCN)C(=O)N[C@@H](C)C(=O)N[C@@H](CC(C)C)C(=O)N[C@@H](CCCCN)C(=O)N[C@@H](C)C(=O)N[C@@H](CC(C)C)C(=O)NCC(=O)N[C@@H](CCCCN)C(=O)N[C@@H](C)C(=O)N[C@@H](CC(C)C)C(=O)NCC(=O)N[C@@H](CCCCN)C(=O)N[C@@H](C)C(N)=O [KIGKALGKALKALGKALGKA]', 'Acinetobacter baumannii', '≥ 45.3 µM'),
  ('CC[C@H](C)[C@H](NC(=O)[C@H](CCCCN)NC(=O)[C@@H]1CCCN1C(=O)[C@@H](NC(=O)[C@H](CC(C)C)NC(=O)[C@H](CCCCN)NC(=O)[C@H](CC(C)C)NC(=O)[C@@H](NC(=O)[C@H](CO)NC(=O)CNC(=O)[C@H](Cc1ccccc1)NC(=O)[C@@H](N)Cc1ccccc1)C(C)C)[C@@H](C)CC)C(=O)N[C@@H](CC(C)C)C(N)=O [FFGSVLKLIPKIL]', 'Acinetobacter baumannii', '≥ 43.4 µM'),
  ('CC(C)C[C@H](NC(=O)[C@@H](N)CCCN=C(N)N)C(=O)N[C@@H](Cc1ccccc1)C(=O)N[C@@H](CCCN=C(N)N)C(=O)N[C@@H](CCCN=C(N)N)C(=O)N[C@H](C(=O)N[C@@H](CCCCN)C(=O)N[C@@H](CCCCN)C(=O)N[C@H](C(=O)N[C@@H](C)C(=O)NCC(N)=O)C(C)C)C(C)C [RLFRRVKKVAG]', 'Acinetobacter baumannii', '≥ 188 µM');

----------
Form: system (Escherichia coli KCTC 1682), quantity (MIC), values below.
Reported Metric: MIC

INSERT INTO measurements (compound, reported_metric, observed_value) VALUES
  ('CC[C@H](C)[C@H](NC(=O)[C@H](CCCCN)NC(=O)[C@H](CCCN=C(N)N)NC(=O)[C@H](CC(C)C)NC(=O)[C@H](C)NC(=O)[C@H](CCCCN)NC(=O)[C@H](CS)NC(=O)[C@H](CC(C)C)NC(=O)[C@@H](N)CC(C)C)C(N)=O', 'MIC', '7.57 µM'),
  ('CC[C@H](C)[C@H](NC(=O)[C@H](CCCN=C(N)N)NC(=O)[C@H](Cc1c[nH]c2ccccc12)NC(=O)[C@H](CC(C)C)NC(=O)[C@@H](N)CCCN=C(N)N)C(=O)N[C@H](C(=O)N[C@H](C(=O)N[C@H](C(=O)N[C@@H](CCCN=C(N)N)C(=O)N[C@H](C(=O)N[C@@H](Cc1c[nH]c2ccccc12)C(=O)N[C@@H](CCCN=C(N)N)C(N)=O)C(C)C)[C@@H](C)CC)C(C)C)C(C)C', 'MIC', '30.3 µM'),
  ('CC(C)C[C@H](NC(=O)[C@H](CC(C)C)NC(=O)[C@H](Cc1c[nH]c2ccccc12)NC(=O)[C@H](CCCCN)NC(=O)[C@H](CC(C)C)NC(=O)[C@H](Cc1c[nH]c2ccccc12)NC(=O)[C@H](CC(C)C)NC(=O)[C@H](CCCCN)NC(=O)[C@H](Cc1c[nH]c2ccccc12)NC(=O)[C@H](CC(C)C)NC(=O)[C@@H](N)CCCCN)C(N)=O', 'MIC', '8 µM'),
  ('CC[C@H](C)[C@H](NC(=O)[C@H](CCCCN)NC(=O)[C@H](CCCCN)NC(=O)[C@H](CC(C)C)NC(=O)[C@H](CCCCN)NC(=O)[C@H](CCCCN)NC(=O)CN)C(=O)NCC(=O)N[C@@H](CCC(N)=O)C(=O)N[C@@H](CCCCN)C(=O)N[C@H](C(=O)N[C@@H](CCCCN)C(=O)N[C@@H](CC(N)=O)C(=O)N[C@@H](Cc1ccccc1)C(=O)N[C@@H](Cc1ccccc1)C(=O)N[C@@H](CCC(N)=O)C(=O)N[C@@H](CCCCN)C(=O)N[C@@H](CC(C)C)C(=O)O)[C@@H](C)CC', 'MIC', '3.12 µM'),
  ('CC[C@H](C)[C@H](NC(=O)[C@H](CC(C)C)NC(=O)[C@H](CCCCN)NC(=O)[C@@H](NC(=O)[C@@H](NC(=O)[C@H](CCCN=C(N)N)NC(=O)[C@@H](N)CCCCN)[C@@H](C)CC)C(C)C)C(=O)N[C@@H](CC(C)C)C(=O)N[C@@H](CCCCN)C(=O)N[C@@H](Cc1c[nH]c2ccccc12)C(=O)N[C@@H](CC(C)C)C(=O)N[C@@H](CCCN=C(N)N)C(N)=O', 'MIC', '8 µM'),
  ('NCCCC[C@H](NC(=O)[C@H](CCCCN)NC(=O)[C@H](Cc1c[nH]c2ccccc12)NC(=O)[C@H](CCCCN)NC(=O)[C@@H]1CCCN1C(=O)[C@H](Cc1c[nH]c2ccccc12)NC(=O)[C@H](Cc1c[nH]c2ccccc12)NC(=O)[C@@H]1CCCN1C(=O)[C@H](CCCCN)NC(=O)[C@H](Cc1c[nH]c2ccccc12)NC(=O)[C@H](Cc1c[nH]c2ccccc12)NC(=O)[C@@H]1CCCN1C(=O)[C@H](CCCCN)NC(=O)[C@@H](N)CCCCN)C(=O)O', 'MIC', '2 µM');

All figures here come from DBAASP.
